Tested on: NCI-H23 lung
Assay: NCI-60 one-dose screen, 48 h (100 = growth as untreated, 0 = no growth, -100 = all killed)
Conditions: 10 µM unless noted
This is part of a sample that, as a whole, favours compounds with a hit. Of some 83,000 tested, about 20% had one in any assay. The source made the active and inactive calls. Rule for the calls: active = growth percent below 10; inactive = the rest.
Item-by-item account of growth
readout_label: growth

                                   compound   system_name                      val
0  C=C1c2c(C)nn(-c3ccc(N)cc3)c2N(C)C23CC1C1(C)c4c(C)nn(-c5ccc(N)cc5)c4N(C)C(C)(CC12)C3 (stereo not given)  NCI-H23 lung         93.6% (inactive)
1                        C#CC[C@H](N)C(=O)O  NCI-H23 lung  103% [20 µM] (inactive)
2  O=C(NCc1cn(Cc2cccc(Oc3ccccc3)c2)nn1)c1cccnc1NCc1ccc(Cl)cc1  NCI-H23 lung         20.6% (inactive)
3            COc1cc2oc3cc(C)oc(=O)c3c2cc1OC  NCI-H23 lung         94.1% (inactive)
4  C/C(=N\NC(=O)Cn1c(-c2ccc(S(C)(=O)=O)cc2)nc2cc(Cl)ccc21)c1ccc(Cl)cc1  NCI-H23 lung           83% (inactive)
5                   CCOc1cccnc1/C=N/NC(N)=S  NCI-H23 lung         73.8% (inactive)
6  COC(=O)/C(=C\c1ccc(OC)cc1)C(=O)N1c2ccccc2Sc2ccccc21  NCI-H23 lung         72.7% (inactive)
7  Cc1nc(Nc2ccc(NC(=S)Nc3ccccc3)cc2)nc2nc(Nc3cccc(Cl)c3)[nH]c(=O)c12  NCI-H23 lung         92.4% (inactive)
8  O=S(=O)(NCCNc1cc(-c2c(-c3cccc(O)c3)nc3sccn23)ccn1)c1ccc(Br)cc1  NCI-H23 lung         76.2% (inactive)
9  Cc1nc(Nc2cccc(NC(=O)Nc3ccc(Cl)cc3)c2)c2ccccc2n1  NCI-H23 lung           96% (inactive)

---

Test system: IGROV1 ovarian
Assay: NCI-60 one-dose screen, 48 h (100 = growth as untreated, 0 = no growth, -100 = all killed)
Conditions: 10 µM unless noted
This is part of a sample that, as a whole, favours compounds with a hit. Of some 83,000 tested, about 20% had one in any assay.
A collection of compounds and their measured growth
readout_label: growth (%)

In [3]: df
Out[3]:
                                   compound   val
0  C#C[C@]1(O)CC[C@H]2[C@@H]3CC=C4c5sc(N=C(N)N)nc5CC[C@]4(C)[C@H]3CC[C@@]21C  14.4
1  Clc1ccc2c(NCCCN3CCN(c4nc(-n5ccnc5)nc5ccccc45)CC3)ccnc2c1  86.5
2  O=C(O)CC1Sc2ccccc2NC1=O (stereo not given)  93.6
3       CCC(C)NCc1ccccc1 (stereo not given)   109
4  N#Cc1c(N)n2c(nc1=Nc1ccc(Cl)cc1)sc1cc(Cl)ccc12  95.9
5  CCNCCNc1cc(-c2ccc(F)cc2)c(C#N)c2nc3ccccc3n12  60.4
6     CCCCCCNC(=O)c1cc(NCc2cc(O)ccc2O)ccc1O  70.7
7  COc1ccc(-c2nnc(-c3ccc4c(c3)nc(-c3ccccc3)n4C3CCCCC3)o2)cc1  89.4
8  COc1ccc(/C(C)=C(\c2ccc(Cl)cc2)c2ccc(OCCCN(C)C)cc2)cc1F  48.5
9  CCCCn1c(=O)[nH]c(N)c(C(c2ccc(F)cc2)c2c(N)[nH]c(=O)n(CCCC)c2=O)c1=O  78.8
